- Tested on: HL60 cells
- ASSAY INFO: AsedaSciences SYSTEMETRIC Cell Health Screen (flow cytometry toxicity profiling)
- CONDITION DETAILS: SYSTEMETRIC Cell Health Screen; assay n=2
Please go through the items and note down their Cell Health Toxcity Profile NMI2 (Nuclear membrane integrity 2).
Numbers only.

MOLECULE: C#Cc1cccc(Nc2c(C#N)cnc3ccc(Cl)cc23)c1 [Compound 26]
TEST RESULT: 0.97
//
MOLECULE: C#Cc1cccc(Nc2c(C#N)cnc3ccc(I)cc23)c1 [Compound 28]
TEST RESULT: 0.81
//
MOLECULE: C#Cc1cccc(Nc2c(C#N)cnc3ccc(F)cc23)c1 [Compound 25]
TEST RESULT: 0.72
//
MOLECULE: C#Cc1cccc(Nc2c(C#N)cnc3ccccc23)c1 [Compound 24]
TEST RESULT: 0.81
//
MOLECULE: C#Cc1cccc(Nc2c(C#N)cnc3ccc(Br)cc23)c1 [Compound 27]
TEST RESULT: 0.98

Parameters: items (list). Returns: Cell Health Toxcity Profile NMI2 (Nuclear membrane integrity 2) for each item.
1. C#Cc1cccc(Nc2c(C#N)cnc3cc(Cl)ccc23)c1 [Compound 30]
2. C#Cc1cccc(Nc2c(C#N)cnc3cc(OC)c(OC)cc23)c1 [Compound 22]
3. C#Cc1cccc(Nc2c(C#N)cnc3cc(OC)ccc23)c1 [Compound 33]
4. C#Cc1cccc(Nc2c(C#N)cnc3ccc(OC)cc23)c1 [Compound 23]
5. C#Cc1cccc(Nc2c(C#N)cnc3ccc(S(C)(=O)=O)cc23)c1 [Compound 29]
6. C#Cc1cccc(Nc2c(C#N)cnc3cc(I)ccc23)c1 [Compound 32]
7. C#Cc1cccc(Nc2c(C#N)cnc3cc(Br)ccc23)c1 [Compound 31]

Ans.
0.041
0.29
0.16
0.11
0.009
0.94
0.34

====

Please go through the items and note down their CC: Cell Cycle score.
- System: HL60 cells
- ASSAY INFO: AsedaSciences SYSTEMETRIC Cell Health Screen (flow cytometry toxicity profiling)
- CONDITION DETAILS: HL60, 4 h, 5 nM–100 µM, probability 0–1, n = 2
Numbers only.

Consider the following illustrative entries.
COMPOUND: C#Cc1cccc(Nc2ncnc3ccc(C)cc23)c1 [Compound 4]
RECORDED ENDPOINT: CC: Cell Cycle score
TEST RESULT: 0.65
//
COMPOUND: CC(C)NCC(O)COc1cccc2ccccc12 (stereo not shown) [Propranolol, reference compound]
RECORDED ENDPOINT: CC: Cell Cycle score
TEST RESULT: 0.24
//
COMPOUND: C#Cc1cccc(Nc2ncnc3ccccc23)c1 [Compound 3]
RECORDED ENDPOINT: CC: Cell Cycle score
TEST RESULT: 0.86
//
COMPOUND: C#Cc1ccc(F)c(Nc2ncnc3cc(OC)c(OC)cc23)c1 [Compound 42]
RECORDED ENDPOINT: CC: Cell Cycle score
TEST RESULT: 0.67

Parameters: items (list). Returns: CC: Cell Cycle score for each item.
1. C#Cc1cc(Nc2ncnc3ccc(I)cc23)ccc1F [Compound 36]
2. CN(CCOc1ccc(CC2SC(=O)NC2=O)cc1)c1ccccn1 (stereo not shown) [Rosiglitazone, reference compound]
3. CC(CN1c2ccccc2Sc2ccccc21)N(C)C (stereo not shown) [Promethazine, reference compound]

Ans.
1: 0.038; 2: 0.27; 3: 0.46

====

- Test system: HL60 cells
- ASSAY INFO: AsedaSciences SYSTEMETRIC Cell Health Screen (flow cytometry toxicity profiling)
- CONDITION DETAILS: HL60, 4 h, 5 nM–100 µM, probability 0–1, n = 2
RECORDED ENDPOINT: CM: Cell morphology score
Answers are plain numbers.

Consider the following illustrative entries.
MOLECULE: C#Cc1cccc(Nc2ncnc3cc(OC)c(OC)cc23)c1
RECORDED ENDPOINT: CM: Cell morphology score
TEST RESULT: 0.85
--
MOLECULE: C#Cc1cccc(Nc2ncnc3ccc(Cl)cc23)c1
RECORDED ENDPOINT: CM: Cell morphology score
TEST RESULT: 0.0047
--
MOLECULE: CC(C(=O)O)c1cccc(C(=O)c2ccccc2)c1 (stereo not shown) [Ketoprofen, reference compound]
RECORDED ENDPOINT: CM: Cell morphology score
TEST RESULT: 0.00
--
MOLECULE: C#Cc1cccc(Nc2ncnc3cc(I)ccc23)c1
RECORDED ENDPOINT: CM: Cell morphology score
TEST RESULT: 1.00
--
MOLECULE: C#Cc1cccc(Nc2ncnc3ccc(I)cc23)c1
RECORDED ENDPOINT: CM: Cell morphology score
TEST RESULT: 0.0063
--
MOLECULE: CCOC(=O)N1CCC(=C2c3ccc(Cl)cc3CCc3cccnc32)CC1 [Loratadine, reference compound]
RECORDED ENDPOINT: CM: Cell morphology score
TEST RESULT: 0.36
--
MOLECULE: CCCCc1oc2ccccc2c1C(=O)c1cc(I)c(OCCN(CC)CC)c(I)c1 [Amiodarone, reference compound]
RECORDED ENDPOINT: CM: Cell morphology score
TEST RESULT: 0.97
--
MOLECULE: [H]/N=C(/N)N/C(=N/[H])NCCc1ccccc1 [Phenformin, reference compound]
RECORDED ENDPOINT: CM: Cell morphology score
TEST RESULT: 0.74

Parameters: items (list). Returns: CM: Cell morphology score for each item.
1. C#Cc1cccc(Nc2ncnc3ccc(C#N)cc23)c1
2. C#Cc1cccc(Nc2ncnc3cc(OCCOC)c(OCCOC)cc23)c1 [Erlotinib, reference compound]
3. Cc1cn([C@@H]2C[C@@H](O)[C@H](CO)O2)c(=O)[nH]c1=O [Telbivudine, reference compound]
4. COc1cc2c(Nc3ccc(Cl)c(Cl)c3F)ncnc2cc1OC[C@@H]1C[C@@H]2CN(C)C[C@@H]2C1 [Tesevatinib, reference compound]

Ans.
1. 0.0026
2. 0.77
3. 0.010
4. 1.00

Parameters: items (list). Returns: CM: Cell morphology score for each item.
1. C#Cc1cc(Nc2ncnc3cc(OC)c(OC)cc23)ccc1F
2. C#Cc1cc(Nc2ncnc3ccc(I)cc23)ccc1F
3. C#Cc1cccc(Nc2ncnc3ccccc23)c1
4. Cc1ccc(=O)n(-c2ccccc2)c1 [Pirfenidone, reference compound]
5. Cc1ccnc2c1NC(=O)c1cccnc1N2C1CC1 [Nevirapine, reference compound]
6. C#Cc1cccc(Nc2c(C#N)cnc3cc(I)ccc23)c1
7. C#Cc1cccc(Nc2ncnc3cc(C#N)ccc23)c1
8. C#Cc1ccc(F)c(Nc2ncnc3cc(OC)c(OC)cc23)c1

Ans.
1. 0.83
2. 0.011
3. 0.96
4. 0.00
5. 0.020
6. 1.00
7. 0.43
8. 0.31

Parameters: items (list). Returns: CM: Cell morphology score for each item.
1. C=C(C)[C@H]1Cc2c(ccc3c2O[C@@H]2COc4cc(OC)c(OC)cc4[C@@H]2C3=O)O1 [Rotenone, reference compound]
2. COc1ccc2cc3[n+](cc2c1OC)CCc1cc2c(cc1-3)OCO2 [Berberine, reference compound]
3. COc1ccc(/C=C/C(=O)Nc2ccccc2C(=O)O)cc1OC [Tranilast, reference compound]
4. CCC(C)(C)C(=O)O[C@H]1C[C@@H](C)C=C2C=C[C@H](C)[C@H](CC[C@@H]3C[C@@H](O)CC(=O)O3)[C@H]21 [Simvastatin, reference compound]
5. CS(=O)(=O)CCNCc1ccc(-c2ccc3ncnc(Nc4ccc(OCc5cccc(F)c5)c(Cl)c4)c3c2)o1 [Lapatinib, reference compound]
6. CSc1ccc2c(c1)N(CCC1CCCCN1C)c1ccccc1S2 (stereo not shown) [Thioridazine, reference compound]

Ans.
0.93
0.99
0.020
0.030
1.00
1.00

Parameters: items (list). Returns: CM: Cell morphology score for each item.
1. C#Cc1ccc(F)c(Nc2ncnc3cc(I)ccc23)c1
2. CC(CN1c2ccccc2Sc2ccccc21)N(C)C (stereo not shown) [Promethazine, reference compound]

Ans.
1. 1.00
2. 1.00

====

- System: HL60 cells
- ASSAY INFO: AsedaSciences SYSTEMETRIC Cell Health Screen (flow cytometry toxicity profiling)
- CONDITION DETAILS: SYSTEMETRIC Cell Health Screen; assay n=2
Please note: Cell Health Toxcity Profile NMI1 (Nuclear membrane integrity 1) exactly at 0.7 is false (0). Only values below 0.7 get true (1).

# example entries with known answers
SMILES: C#Cc1cccc(Nc2c(C#N)cnc3cc(OC)ccc23)c1
GROUP LABEL: true (1)
--
SMILES: C#Cc1cccc(Nc2c(C#N)cnc3ccc(Cl)cc23)c1
GROUP LABEL: false (0)
--
SMILES: C#Cc1cccc(Nc2c(C#N)cnc3ccc(I)cc23)c1
GROUP LABEL: false (0)

Qu. Quick check: Cell Health Toxcity Profile NMI1 (Nuclear membrane integrity 1) of "C#Cc1cccc(Nc2c(C#N)cnc3ccc(S(C)(=O)=O)cc23)c1" under 0.7?
Ans. true (1)

Qu. Quick check: Cell Health Toxcity Profile NMI1 (Nuclear membrane integrity 1) of "C#Cc1cccc(Nc2c(C#N)cnc3cc(I)ccc23)c1" under 0.7?
Ans. false (0)

Qu. Quick check: Cell Health Toxcity Profile NMI1 (Nuclear membrane integrity 1) of "C#Cc1cccc(Nc2c(C#N)cnc3ccc(Br)cc23)c1" under 0.7?
Ans. true (1)

Qu. Quick check: Cell Health Toxcity Profile NMI1 (Nuclear membrane integrity 1) of "C#Cc1cccc(Nc2c(C#N)cnc3cc(Br)ccc23)c1" under 0.7?
Ans. true (1)

Qu. Quick check: Cell Health Toxcity Profile NMI1 (Nuclear membrane integrity 1) of "C#Cc1cccc(Nc2c(C#N)cnc3ccccc23)c1" under 0.7?
Ans. false (0)

Qu. Quick check: Cell Health Toxcity Profile NMI1 (Nuclear membrane integrity 1) of "C#Cc1cccc(Nc2c(C#N)cnc3cc(OC)c(OC)cc23)c1" under 0.7?
Ans. true (1)

Qu. Quick check: Cell Health Toxcity Profile NMI1 (Nuclear membrane integrity 1) of "C#Cc1cccc(Nc2c(C#N)cnc3ccc(OC)cc23)c1" under 0.7?
Ans. true (1)
